System: 996289-038-R-J1-PDC complex spheroid viability
assay details: Anticancer human tumor 996289-038-R-J1-PDC patient-derived colon adenocarcinoma cell line growth inhibition [CLK]; active means viability on the fitted dose curve at most 10% of control; inactive means the rest
experimental conditions: second compound 10 µM; first compound 0.3 µM
Assign a class; possible classes are yes for active, no for inactive

Given CC(C)CC(NC(=O)C(Cc1ccccc1)NC(=O)c1cnccn1)B(O)O (stereo unspecified) + CN1CCN(c2cc(C(=O)Nc3cc4cc(-c5cnn(C)c5)ccc4cn3)ccn2)CC1 , state the outcome it received in this test.
yes

Same question, C=CC(=O)Nc1cc(Nc2nccc(-c3cn(C)c4ccccc34)n2)c(OC)cc1N(C)CCN(C)C + CNC(=O)c1ccc(Nc2nc(OC3CCCC3)c3c(-c4ccc5nc(C)oc5c4)c[nH]c3n2)c(OC)c1 this time
no

Same question, C=CC(=O)Nc1cc(Nc2nccc(-c3cn(C)c4ccccc34)n2)c(OC)cc1N(C)CCN(C)C + CN1CCN(c2cc(C(=O)Nc3cc4cc(-c5cnn(C)c5)ccc4cn3)ccn2)CC1 this time
yes

Same question, CC(C)CC(NC(=O)C(Cc1ccccc1)NC(=O)c1cnccn1)B(O)O (stereo unspecified) + CNC(=O)c1ccc(Nc2nc(OC3CCCC3)c3c(-c4ccc5nc(C)oc5c4)c[nH]c3n2)c(OC)c1 this time
yes

Same question, NC(=O)C(=Cn1cnc(-c2cc(C(F)(F)F)cc(C(F)(F)F)c2)n1)c1cncnc1 + CN1CCN(c2cc(C(=O)Nc3cc4cc(-c5cnn(C)c5)ccc4cn3)ccn2)CC1 this time
yes

Same question, NC(=O)C(=Cn1cnc(-c2cc(C(F)(F)F)cc(C(F)(F)F)c2)n1)c1cncnc1 + CNC(=O)c1ccc(Nc2nc(OC3CCCC3)c3c(-c4ccc5nc(C)oc5c4)c[nH]c3n2)c(OC)c1 this time
yes

----------
Tested on: 996289-038-R-J1-PDC complex spheroid viability
assay details: Anticancer human tumor 996289-038-R-J1-PDC cell line growth inhibition [CLK]; active means viability on the fitted dose curve at most 10% of control; inactive means the rest;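 further: spheroids exposed to the agents for 7 days before readout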
experimental conditions: second compound 10 µM; first compound 3.16 µM
Assign a class; possible classes are active, inactive

Given CC(CO)NC(=O)c1cc(-c2ccc(Cl)cc2)nn(-c2cnn(C)c2)c1=O (configuration not stated) + CN1CCN(c2cc(C(=O)Nc3cc4cc(-c5cnn(C)c5)ccc4cn3)ccn2)CC1 , state the outcome it received in this test.
active

Same question, CCCS(=O)(=O)Nc1ccc(F)c(C(=O)c2c[nH]c3ncc(-c4ccc(Cl)cc4)cc23)c1F + CNC(=O)c1ccc(Nc2nc(OC3CCCC3)c3c(-c4ccc5nc(C)oc5c4)c[nH]c3n2)c(OC)c1 this time
inactive

Same question, CC1(C)CCC(CN2CCN(c3ccc(C(=O)NS(=O)(=O)c4ccc(NCC5CCOCC5)c([N+](=O)[O-])c4)c(Oc4cnc5[nH]ccc5c4)c3)CC2)=C(c2ccc(Cl)cc2)C1 + CN1CCN(c2cc(C(=O)Nc3cc4cc(-c5cnn(C)c5)ccc4cn3)ccn2)CC1 this time
active

Same question, CC(=O)O[C@H]1C(=O)[C@@]2(C)[C@H]([C@H](OC(=O)c3ccccc3)[C@]3(O)C[C@H](OC(=O)[C@H](O)[C@@H](NC(=O)c4ccccc4)c4ccccc4)C(C)=C1C3(C)C)[C@]1(OC(C)=O)CO[C@@H]1C[C@@H]2O + CN1CCN(c2cc(C(=O)Nc3cc4cc(-c5cnn(C)c5)ccc4cn3)ccn2)CC1 this time
active

Same question, COc1cccc2c1C(=O)c1c(O)c3c(c(O)c1C2=O)CC(O)(C(=O)CO)CC3OC1CC(N)C(O)C(C)O1 (configuration not stated) + CN1CCN(c2cc(C(=O)Nc3cc4cc(-c5cnn(C)c5)ccc4cn3)ccn2)CC1 this time
active

Same question, CC1COCCN1c1cc(C2(S(C)(=N)=O)CC2)nc(-c2ccnc3[nH]ccc23)n1 (configuration not stated) + CN1CCN(c2cc(C(=O)Nc3cc4cc(-c5cnn(C)c5)ccc4cn3)ccn2)CC1 this time
active

Same question, CCCS(=O)(=O)Nc1ccc(F)c(C(=O)c2c[nH]c3ncc(-c4ccc(Cl)cc4)cc23)c1F + CN1CCN(c2cc(C(=O)Nc3cc4cc(-c5cnn(C)c5)ccc4cn3)ccn2)CC1 this time
active

Same question, Nc1ccccc1NC(=O)c1ccc(CNC(=O)OCc2cccnc2)cc1 + CNC(=O)c1ccc(Nc2nc(OC3CCCC3)c3c(-c4ccc5nc(C)oc5c4)c[nH]c3n2)c(OC)c1 this time
inactive

Same question, O=c1[nH]cc(F)c(=O)[nH]1 + CN1CCN(c2cc(C(=O)Nc3cc4cc(-c5cnn(C)c5)ccc4cn3)ccn2)CC1 this time
active

Same question, C#Cc1c(F)ccc2cc(O)cc(-c3ncc4c(N5CC6CCC(C5)N6)nc(OCC56CCCN5CC(F)C6)nc4c3F)c12 (configuration not stated) + CN1CCN(c2cc(C(=O)Nc3cc4cc(-c5cnn(C)c5)ccc4cn3)ccn2)CC1 this time
active

Same question, C#Cc1c(F)ccc2cc(O)cc(-c3ncc4c(N5CC6CCC(C5)N6)nc(OCC56CCCN5CC(F)C6)nc4c3F)c12 (configuration not stated) + CNC(=O)c1ccc(Nc2nc(OC3CCCC3)c3c(-c4ccc5nc(C)oc5c4)c[nH]c3n2)c(OC)c1 this time
inactive

Same question, O=C(c1cc(Cc2n[nH]c(=O)c3ccccc23)ccc1F)N1CCN(C(=O)C2CC2)CC1 + CNC(=O)c1ccc(Nc2nc(OC3CCCC3)c3c(-c4ccc5nc(C)oc5c4)c[nH]c3n2)c(OC)c1 this time
inactive

----------
Test system: 996289-038-R-J1-PDC complex spheroid viability
assay details: Anticancer human tumor 996289-038-R-J1-PDC cell line growth inhibition [CLK];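 further: spheroids exposed to the agents for 7 days before readout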
experimental conditions: second compound 0.0316 µM; first compound 0.1 µM; stronger effect = lower value
endpoint name: viability, T/C (%)
Express the result in % but write the number alone.

// viability, T/C lookup, key: O=c1[nH]cc(F)c(=O)[nH]1 + CNC(=O)c1ccc(Nc2nc(OC3CCCC3)c3c(-c4ccc5nc(C)oc5c4)c[nH]c3n2)c(OC)c1
111

Same question, CCc1c2c(nc3ccc(O)cc13)-c1cc3c(c(=O)n1C2)COC(=O)[C@]3(O)CC + CN1CCN(c2cc(C(=O)Nc3cc4cc(-c5cnn(C)c5)ccc4cn3)ccn2)CC1 this time
56.6

Same question, CCN1CCN(Cc2ccc(Nc3ncc(F)c(-c4cc(F)c5nc(C)n(C(C)C)c5c4)n3)nc2)CC1 + CNC(=O)c1ccc(Nc2nc(OC3CCCC3)c3c(-c4ccc5nc(C)oc5c4)c[nH]c3n2)c(OC)c1 this time
97.6

Same question, CC1(C)CCC(CN2CCN(c3ccc(C(=O)NS(=O)(=O)c4ccc(NCC5CCOCC5)c([N+](=O)[O-])c4)c(Oc4cnc5[nH]ccc5c4)c3)CC2)=C(c2ccc(Cl)cc2)C1 + CNC(=O)c1ccc(Nc2nc(OC3CCCC3)c3c(-c4ccc5nc(C)oc5c4)c[nH]c3n2)c(OC)c1 this time
110

Same question, Nc1ccccc1NC(=O)c1ccc(CNC(=O)OCc2cccnc2)cc1 + CNC(=O)c1ccc(Nc2nc(OC3CCCC3)c3c(-c4ccc5nc(C)oc5c4)c[nH]c3n2)c(OC)c1 this time
103

Same question, CCc1c2c(nc3ccc(O)cc13)-c1cc3c(c(=O)n1C2)COC(=O)[C@]3(O)CC + CNC(=O)c1ccc(Nc2nc(OC3CCCC3)c3c(-c4ccc5nc(C)oc5c4)c[nH]c3n2)c(OC)c1 this time
61.6

Same question, Cn1ncnc1[C@H]1c2n[nH]c(=O)c3cc(F)cc(c23)N[C@@H]1c1ccc(F)cc1 + CN1CCN(c2cc(C(=O)Nc3cc4cc(-c5cnn(C)c5)ccc4cn3)ccn2)CC1 this time
80.4

Same question, COc1cccc2c1C(=O)c1c(O)c3c(c(O)c1C2=O)CC(O)(C(=O)CO)CC3OC1CC(N)C(O)C(C)O1 (stereo not given) + CN1CCN(c2cc(C(=O)Nc3cc4cc(-c5cnn(C)c5)ccc4cn3)ccn2)CC1 this time
91.8

Same question, C=C(F)C(=O)N1CCN(c2nc(OCC3CCCN3C)nc3c2CCN(c2cccc4cccc(Cl)c24)C3)CC1CC#N (stereo not given) + CNC(=O)c1ccc(Nc2nc(OC3CCCC3)c3c(-c4ccc5nc(C)oc5c4)c[nH]c3n2)c(OC)c1 this time
129

Same question, CC(CO)NC(=O)c1cc(-c2ccc(Cl)cc2)nn(-c2cnn(C)c2)c1=O (stereo not given) + CN1CCN(c2cc(C(=O)Nc3cc4cc(-c5cnn(C)c5)ccc4cn3)ccn2)CC1 this time
96.2

----------
Test system: 996289-038-R-J1-PDC complex spheroid viability
assay details: Anticancer human tumor 996289-038-R-J1-PDC cell line growth inhibition [CLK]; active = viability on the fitted dose curve at most 10% of control; inactive = the rest;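 further: spheroids exposed to the agents for 7 days before readout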
experimental conditions: second compound 10 µM; first compound 0.000949 µM
Assign a class; possible classes are active, inactive

Given CC(C)CC(NC(=O)C(Cc1ccccc1)NC(=O)c1cnccn1)B(O)O (centres undefined) + CN1CCN(c2cc(C(=O)Nc3cc4cc(-c5cnn(C)c5)ccc4cn3)ccn2)CC1 , state the outcome it received in this test.
active

Same question, C=CC(=O)Nc1cc(Nc2nccc(-c3cn(C)c4ccccc34)n2)c(OC)cc1N(C)CCN(C)C + CNC(=O)c1ccc(Nc2nc(OC3CCCC3)c3c(-c4ccc5nc(C)oc5c4)c[nH]c3n2)c(OC)c1 this time
inactive

Same question, C=CC(=O)Nc1cc(Nc2nccc(-c3cn(C)c4ccccc34)n2)c(OC)cc1N(C)CCN(C)C + CN1CCN(c2cc(C(=O)Nc3cc4cc(-c5cnn(C)c5)ccc4cn3)ccn2)CC1 this time
active

Same question, CC(C)CC(NC(=O)C(Cc1ccccc1)NC(=O)c1cnccn1)B(O)O (centres undefined) + CNC(=O)c1ccc(Nc2nc(OC3CCCC3)c3c(-c4ccc5nc(C)oc5c4)c[nH]c3n2)c(OC)c1 this time
inactive
